B1: glmS ribozyme (parent)
chain: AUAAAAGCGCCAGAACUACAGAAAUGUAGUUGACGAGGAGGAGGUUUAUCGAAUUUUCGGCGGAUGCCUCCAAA

- Variants of: B1
- Test summary: self-cleavage kobs at 10000 uM GlcN6P; higher = faster cleavage; RNA array
- Experimental parameters: with glucosamine-6-phosphate
Variants at the floor of the assay were thinned out.
Endpoint label: self-cleavage kobs at 10000 uM GlcN6P (s⁻¹)
Just the number please, in s⁻¹, no unit attached.

Consider the variant shown here: G41A A42C What is its recorded self-cleavage kobs at 10000 uM GlcN6P?
3.53e-05
